Before we begin, note that these IC50 values for Coagulation factor X (Homo sapiens) originate from several publications.
Hi! Could you send only the number? It should be in nM, unit omitted.

compound	parameter-measured	unit-annotation	readout-number
N#C/N=C(\Nc1ccc2oc(C#N)cc2c1)N[C@H]1CCCCN(CC(=O)N2CCCC2)C1=O	IC50	nM	2600
N=C(N)NCCC[C@H](NC(=O)CN1CCN[C@@H](CCCNC(=N)N)C1=O)C(=O)c1nccs1	IC50	nM	20
COc1ccc(NC(=O)c2cc(OC)ccc2NC(=O)c2nc3c(s2)CN(C)CC3)cc1	IC50	nM	234
COc1ccc(-c2ccc(C(=O)NCC(C)(C)C)cc2C(=O)O)c(C(=O)Nc2ccc3c(N)nccc3c2)n1	IC50	nM	1700
CS(=O)(=O)N(Cc1ccc2ccc(C(=N)N)cc2c1)C1CCN(Cc2cccc(C#N)c2)CC1	IC50	nM	2300

Ask | Consider the compound shown here: O=C(Nc1ccc(Cl)cc1C(=O)Nc1ccc(Cl)cn1)c1ccc(-c2ccccc2N2CCC(O)CC2)cc1 What is its recorded IC50?
Reply | 1

Ask | Recorded IC50 of N=C(N)NCCC[C@H](NC(=O)[C@H](Cc1cccc2ccccc12)NC(=O)[C@@H](Cc1ccccc1)NS(=O)(=O)Cc1ccccc1)C(=O)c1nccs1 , please.
Reply | 1800

Ask | Name the recorded IC50 for N=C(N)NCCC[C@H](NC(=O)CN1CCN(S(=O)(=O)Cc2ccccc2)[C@@H](Cc2ccccc2)C1=O)C(=O)c1nccs1 .
Reply | 59
